Would you mind telling me the reported IC50 of each entry?
TARGET ENTITY: IDO1 (Homo sapiens, UniProt P14902)
Construct: endogenous in cells
Sequence (P14902 whole entry): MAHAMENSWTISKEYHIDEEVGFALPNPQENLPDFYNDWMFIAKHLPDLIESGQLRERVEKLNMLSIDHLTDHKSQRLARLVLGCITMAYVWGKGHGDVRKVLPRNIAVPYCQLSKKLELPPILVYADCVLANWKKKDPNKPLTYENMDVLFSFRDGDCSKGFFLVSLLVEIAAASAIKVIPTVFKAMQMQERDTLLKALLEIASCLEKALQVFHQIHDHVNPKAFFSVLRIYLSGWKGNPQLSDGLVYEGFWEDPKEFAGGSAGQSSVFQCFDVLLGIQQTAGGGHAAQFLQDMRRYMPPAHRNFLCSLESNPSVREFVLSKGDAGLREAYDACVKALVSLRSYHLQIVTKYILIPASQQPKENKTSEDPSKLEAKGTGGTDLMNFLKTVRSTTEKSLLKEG
TEST DESCRIPTION: IDO1 cell-based assay (HeLa cells, IFNgamma-induced, N-formylkynurenine/L-tryptophan by RFMS)
CONDITION: 10 ng/mL IFNgamma, 24 hours

Ask: Fill in the blank: the reported IC50 of CCC(NC(=O)c1ccc(Cl)cc1)[C@H]1[C@@H]2C[C@@H](n3cccc4ncnc3-4)C[C@@H]21 (stereo partly shown) is ____.
Result: 200 to 2000 nM

Ask: Fill in the blank: the reported IC50 of CCC(NC(=O)c1ccc(Cl)cc1)[C@H]1[C@@H]2C[C@@H](n3ncc4ccncc43)C[C@@H]21 (stereo partly shown) is ____.
Result: < 200 nM

Ask: Fill in the blank: the reported IC50 of `CC[C@@H](NC(=O)c1ccnc(C)c1)[C@H]1[C@@H]2C[C@@H](n3cnc4cc(F)c(F)cc43)C[C@@H]21` is ____.
Result: 200 to 2000 nM

Ask: Fill in the blank: the reported IC50 of CCC(NC(=O)c1ccc(Cl)cc1)[C@H]1[C@@H]2C[C@@H](Oc3ncnc4ccc(F)cc34)C[C@@H]21 (stereo partly shown) is ____.
Result: < 200 nM

Ask: Fill in the blank: the reported IC50 of `C[C@@H](NC(=O)c1ccc(C#N)cc1)[C@H]1[C@@H]2C[C@@H](O)C[C@@H]21` is ____.
Result: > 5000 nM

Ask: Fill in the blank: the reported IC50 of CCC(NC(=O)c1ccc(Cl)cc1)[C@H]1[C@@H]2C[C@@H](n3c(=O)n(C)c4ccccc43)C[C@@H]21 (stereo partly shown) is ____.
Result: < 200 nM

Ask: Fill in the blank: the reported IC50 of CC(NC(=O)c1ccc(C#N)cc1)[C@H]1[C@@H]2C[C@@H](n3cnc4ccc(F)cc4c3=O)C[C@@H]21 (stereo partly shown) is ____.
Result: < 200 nM

Ask: Fill in the blank: the reported IC50 of `O=C(NCc1ccc(Cl)cc1)[C@@H]1[C@@H]2CN(c3ncnc4ccc(F)cc34)C[C@@H]21` is ____.
Result: > 5000 nM

Ask: Fill in the blank: the reported IC50 of CC(NC(=O)c1ccc(C#N)cc1)C1[C@H]2CC(O)C[C@@H]12 (stereo partly shown) [Compound 106] is ____.
Result: > 5000 nM

Ask: Fill in the blank: the reported IC50 of CCC(NC(=O)c1ccc(Cl)cc1)[C@H]1[C@@H]2C[C@@H](n3ccc4ncnc-4c3)C[C@@H]21 (stereo partly shown) is ____.
Result: < 200 nM

Ask: Fill in the blank: the reported IC50 of CCC(NC(=O)c1ccc(Cl)cc1)[C@H]1[C@@H]2C[C@@H](n3cc(C4CNC4)nn3)C[C@@H]21 (stereo partly shown) is ____.
Result: > 5000 nM

Ask: Fill in the blank: the reported IC50 of CCC(NC(=O)c1ccc(Cl)cc1)[C@H]1[C@@H]2C[C@@H](N3C(=O)CC(C)(C)C3=O)C[C@@H]21 (stereo partly shown) is ____.
Result: 2000 to 5000 nM

Ask: Fill in the blank: the reported IC50 of CCC(NC(=O)c1ccc(Cl)cc1)[C@H]1[C@@H]2C[C@@H](NC(=O)c3cccnc3C)C[C@@H]21 (stereo partly shown) is ____.
Result: < 200 nM

Ask: Fill in the blank: the reported IC50 of O=C(NC1C2CN(c3ccnc4ccc(F)cc34)CC21)C(CO)c1ccccc1 (stereo not shown) is ____.
Result: > 5000 nM

Ask: Fill in the blank: the reported IC50 of CCC(NC(=O)c1ccc(Cl)cc1)[C@H]1[C@@H]2C[C@@H](Oc3cncc(F)c3)C[C@@H]21 (stereo partly shown) is ____.
Result: < 200 nM

Ask: Fill in the blank: the reported IC50 of CCC(NC(=O)c1ccc(Cl)cc1)[C@H]1[C@@H]2C[C@@H](n3ncc4cccc(F)c43)C[C@@H]21 (stereo partly shown) is ____.
Result: < 200 nM

Ask: Fill in the blank: the reported IC50 of `CC[C@@H](NC(=O)c1ccc(C)nc1)[C@H]1[C@@H]2C[C@@H](n3cnc4cc(F)c(F)cc43)C[C@@H]21` is ____.
Result: < 200 nM

Ask: Fill in the blank: the reported IC50 of CCC(NC(=O)c1ccc(Cl)cc1)[C@H]1[C@@H]2C[C@@H](Oc3cc(=O)n(C)c4ccccc34)C[C@@H]21 (stereo partly shown) is ____.
Result: < 200 nM

Ask: Fill in the blank: the reported IC50 of CC(NC(=O)c1ccc(C#N)cc1)[C@H]1[C@@H]2C[C@@H](n3cnc4cc(F)ccc4c3=O)C[C@@H]21 (stereo partly shown) is ____.
Result: < 200 nM

Ask: Fill in the blank: the reported IC50 of CC[C@@H](NC(=O)c1ccc(C#N)cc1)[C@H]1[C@@H]2C[C@@H](n3cc(C4CCOC4)nn3)C[C@@H]21 (stereo partly shown) is ____.
Result: 200 to 2000 nM

Ask: Fill in the blank: the reported IC50 of CCC(NC(=O)c1ccc(Cl)cc1)[C@H]1[C@@H]2C[C@@H](N=[N+]=[N-])C[C@@H]21 (stereo partly shown) is ____.
Result: 200 to 2000 nM

Ask: Fill in the blank: the reported IC50 of CC(C(=O)Nc1ccc(Cl)cc1)[C@H]1[C@@H]2C[C@@H](Oc3ncnc4ccc(F)cc34)C[C@@H]21 (stereo partly shown) is ____.
Result: < 200 nM

Ask: Fill in the blank: the reported IC50 of O=C(O)CC(NC(=O)c1ccc(Cl)cc1)[C@H]1[C@@H]2C[C@@H](Oc3ncnc4ccc(F)cc34)C[C@@H]21 (stereo partly shown) is ____.
Result: > 5000 nM

Ask: Fill in the blank: the reported IC50 of `CC[C@@H](NC(=O)c1ccc(Cl)cc1)[C@H]1[C@@H]2C[C@@H](n3cc(C)cn3)C[C@@H]21` is ____.
Result: < 200 nM

Ask: Fill in the blank: the reported IC50 of `CC[C@@H](NC(=O)c1ccc(Cl)cc1)[C@H]1[C@@H]2C[C@@H](n3cc(C(F)(F)F)cn3)C[C@@H]21` is ____.
Result: < 200 nM

Ask: Fill in the blank: the reported IC50 of CCC(NC(=O)c1ccc(Cl)cc1)[C@H]1[C@@H]2C[C@@H](Oc3cc(F)ccc3F)C[C@@H]21 (stereo partly shown) is ____.
Result: < 200 nM

Ask: Fill in the blank: the reported IC50 of CCC(NC(=O)c1ccc(Cl)cc1)[C@H]1[C@@H]2C[C@@H](Oc3c(Cl)ccnc3C)C[C@@H]21 (stereo partly shown) is ____.
Result: < 200 nM

Ask: Fill in the blank: the reported IC50 of O=S(=O)(Cc1ccc(Br)cc1)NC1C2CC(Oc3ccnc4ccccc34)CC21 (stereo not shown) is ____.
Result: > 5000 nM
